These entries and their values trace back to PubChem BioAssay.

assayedTarget: Dihydroorotate dehydrogenase (quinone), mitochondrial (Plasmodium falciparum (isolate 3D7))
measurementDescription: inhibition of P. falciparum DHODH – biochemical, C-terminal His tag, absorbance 600 nm, primary screen (AID 1175);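 also: recombinant parasite enzyme with a five histidine tag at its C terminus; test concentration not given here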
assayContext: PfDHODH enzyme, DCIP absorbance 600 nm; higher = more signal, called active from +8 up or from −8 down
In this section we review reported composite z-score values for a set of compounds.
propertyName: composite z-score

compound	propertyName	experimentalValue
O=C1O[C@@H](c2ccccc2)[C@@H](c2ccccc2)N2[C@@H](c3ccccc3OCCO)[C@]3(C(=O)Nc4ccc(C#CCCO)cc43)[C@@H](C(=O)NC[C@H](O)c3ccccc3)[C@H]12	composite z-score	0.873
COC(=O)[C@@]1(Cc2ccccc2)[C@H]2c3cc(C(=O)N4CCCC4)n(Cc4ccc(OC)c(OC)c4)c3C[C@H]2CN1C(=O)c1ccccc1	composite z-score	0.263
C=CCNC(=O)[C@H]1[C@@H]2C(=O)O[C@@H](c3ccccc3)[C@@H](c3ccccc3)N2[C@@H](c2ccc(OCCO)cc2)[C@]12C(=O)Nc1ccc(C#CC3(O)CCCCCC3)cc12	composite z-score	-0.0685
C=CCC(OC(C)=O)[C@@H]1[C@@H](N(Cc2cc3ccccc3o2)C(=O)Cc2ccc(OC)cc2)c2cc(OCCCO)ccc2N1C(=O)c1ccc2ccccc2n1 (some centres not stated)	composite z-score	0.278
C=CC1c2cc(O)c(OC)cc2CCN1C (configuration not stated)	composite z-score	-3.34
COCCOC(=O)N1C(=O)[C@@]2(c3cc(C#CCC(C(=O)OC)C(=O)OC)ccc31)[C@H](C(N)=O)[C@H]1C(=O)O[C@H](c3ccccc3)[C@H](c3ccccc3)N1[C@@H]2c1ccc(O)cc1	composite z-score	-0.667
COCCOC(=O)N1C(=O)[C@@]2(c3cc(C#CCC(C(=O)OC)C(=O)OC)ccc31)[C@H](C(=O)Nc1nc3ccccc3s1)[C@H]1C(=O)O[C@H](c3ccccc3)[C@H](c3ccccc3)N1[C@@H]2c1ccc(O)cc1	composite z-score	0.863
O=C(NC1CC1)[C@@H]1c2ccccc2C(=O)N(CC23CC4CC(CC(C4)C2)C3)[C@H]1c1ccc(CO)cc1	composite z-score	-0.329
COC(=O)[C@@]1(Cc2ccc(OC)cc2)[C@H]2c3cc(C(=O)N4CCCC4)n(Cc4ccc(Cl)c(C(F)(F)F)c4)c3C[C@H]2CN1C(=O)c1ccccc1	composite z-score	-0.902
C=C(COC)C(=O)CC[C@@H](OC(C)=O)c1ccccc1OCCO	composite z-score	-1.34
COC(=O)[C@]1(CCC(=O)OC(C)(C)C)N=C(c2ccc(OCCCO)cc2)O[C@@H]1c1ccccc1N=[N+]=[N-]	composite z-score	0.878
CCCN1C(=O)[C@]2(CCC(=O)OC(C)(C)C)N=C(c3ccc(OCCCO)cc3)O[C@@H]2c2ccccc21	composite z-score	0.023
O=C(NCC(O)CO)[C@@]1(CCS(=O)(=O)c2ccccc2)N=C(c2ccc(OCCCO)cc2)O[C@H]1c1ccccc1 (some centres not stated)	composite z-score	-0.637
C=CCN1C(=O)[C@@]2(O[C@@H](CCn3cc([C@H](O)c4ccccc4)nn3)[C@H]([Si](C)(C)c3ccc(OC)cc3)[C@H]2C)c2cc(N3C(=O)c4cccc5cccc3c45)ccc21	composite z-score	-0.0217
COc1ccc([Si](C)(C)[C@@H]2[C@@H](CC(=O)N3CCC[C@H]3CO)O[C@]3(C(=O)N(Cc4cccc(N5CCCCC5=O)c4)c4ccccc43)[C@H]2C)cc1	composite z-score	-0.877
O=C1[C@H]2C=C(I)[C@H](C[C@@H]2OCCCCCCO)[C@@]12CO2	composite z-score	0.742
COC(=O)C1=CC(CCCO)=CC(c2cccs2)N(Cc2cc3c(cc2Br)OCO3)C=C1C(=O)OC (configuration not stated)	composite z-score	-0.851
Cc1ccc(N2C(=O)c3ccccc3[C@](C)(C(=O)NCCCN(C)C)[C@@H]2c2ccc(CO)cc2)nc1	composite z-score	0.0135
C=CCOC(=O)[C@H]1[C@@H]2C(=O)O[C@@H](c3ccccc3)[C@@H](c3ccccc3)N2[C@@H](c2ccc(OCCOC(=O)[C@@H]3C[C@@H]4C(=O)N[C@@H](CCCCNC(C)=O)C(=O)N4[C@@H]3c3cccc(OCCO)c3)cc2)[C@]12C(=O)Nc1ccccc12	composite z-score	0.277
COC(=O)C(CC#Cc1ccc2c(c1)[C@]1(C(=O)N2)[C@H](C(=O)NC[C@H](O)c2ccccc2)[C@H]2C(=O)O[C@H](c3ccccc3)[C@H](c3ccccc3)N2[C@@H]1c1ccccc1OCCO)C(=O)OC	composite z-score	-7.26
O=C1O[C@H](Cc2ccccc2)[C@@H]2[C@H]3C=CCCC=C3CN2[C@H]1Cc1ccc(O)cc1	composite z-score	-0.259
NC(=O)NCC#Cc1ccc2c(c1)[C@]1(C(=O)N2)[C@H](c2ccc(OCCO)cc2)N2[C@H](c3ccccc3)[C@H](c3ccccc3)OC(=O)[C@H]2[C@@H]1C(=O)O	composite z-score	-0.996
O=C1C2C=CC(C(O)C3CCCCC3)N(n3cnnc3)C2C(=O)N1Cc1ccccc1 (configuration not stated)	composite z-score	-0.016
CC(C)(C)N1CC=CC23O[C@@H]4/C=C\CCCOC(=O)C4[C@H]2C(=O)N(CCCCCO)[C@@H]3C1=O (some centres not stated)	composite z-score	-0.22
CC(C)C[C@@H]1NC(=O)[C@@H]2C[C@H](C(=O)NCCCCCCNC(=O)CS)[C@H](c3cccc(OCCO)c3)N2C1=O	composite z-score	0.283
CC(C)(C)N1CC=CC23O[C@@H]4C=CCCOC(=O)C4[C@H]2C(=O)N(CCCCCCO)[C@@H]3C1=O (some centres not stated)	composite z-score	0.713
O=C(NCCN1CCOCC1)[C@@H]1c2ccccc2C(=O)N(Cc2ccc(OC(F)(F)F)cc2)[C@H]1c1ccc(CO)cc1	composite z-score	-0.0449
